# Experimental details: Toxicity in brine shrimp assessed as mortality
# Format: organism-based
# Run parameters: artemia salina, in vivo; read-out: LD50 (the source's name)
Output 1 for records whose LC50 is lower than 10 µM, -1 for records at or above 10 µM.

For orientation, consider the following solved cases.
                                   compound  class_name
0  C=CC(C)(C)c1[nH]c2c(C[C@H](O)C(C)(C)O)cccc2c1/C=C1\NC(=O)[C@H](C)NC1=O           1
1  C=CC(C)(C)c1[nH]c2ccccc2c1/C=C1\NC(=O)C2(C=C3c4cc(O)cc(O)c4C(=O)c4c(O)cc(C)c(c43)O2)NC1=O (stereo not drawn)          -1
2  C=CC(C)(C)c1[nH]c2ccccc2c1/C=C1\NC(=O)C(=O)NC1=O           1
3  C=CC(C)(C)c1[nH]c2c(C[C@H](O)C(C)(C)OC)cccc2c1/C=C1\NC(=O)[C@H](C)NC1=O          -1
4  C=CC(C)(C)c1[nH]c2c(CC=C(C)C)cccc2c1/C=C1\NC(=O)[C@H](C)NC1=O          -1

Say whether its LC50 is strictly beneath 10 µM. Entry: C[C@@H]1NC(=O)[C@H](Cc2c[nH]c3ccccc23)NC1=O
-1

Say whether its LC50 is strictly beneath 10 µM. Entry: COc1cc2c(c(OC)c1OC)-c1ccc(OC)c(=O)cc1[C@@H](NC(C)=O)CC2
-1

Say whether its LC50 is strictly beneath 10 µM. Entry: C=CC(C)(C)c1[nH]c2ccc(CC=C(C)C)cc2c1/C=C1\NC(=O)[C@H](C)NC1=O
-1

Where do the numbers come from? From ChEMBL document CHEMBL3576765.
